- ASSAY: qHTS Assay for NPC1 Promoter Activators; further: nearly all actives have a fitted effect of over 60% in size;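 on activation: reporter is driven by a mutant NPC1 promoter; % of control where 0% means no effect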
- ASSAY_CONDITIONS: Huh7 NPC1 promoter luciferase reporter, 24 h; series mostly up to 9.22 µM
Among all 320,000 compounds or so, about 7,600 (2.4%) were called active. Another 3% or so got no clear call; they are omitted. The call rests on the fitted dose curve; in most records, active means well fitted activation curve with a large enough effect; inconclusive means small, poorly fitted or top-dose-only effect; inactive means no such curve, though single readings can be large or run the other way. Many of the other results were omitted from the sample, so actives are more common in it than they were.
Please state which outcome applies, choosing from 1 = active, -1 = inactive

Cc1ccc(-n2ncc3c(Nc4cccc(C(=O)O)c4)ncnc32)cc1
1

Which outcome was entered for the compound CN(C(=O)COC(=O)Cn1cnc2c1c(=O)n(C)c(=O)n2C)C1(C#N)CCCCC1 in this test?
-1

Which outcome was entered for the compound COc1ccc2nc(C)cc(Nc3cccc(C(=O)O)c3)c2c1 in this test?
-1

* * *

- ASSAY: qHTS Assay for NPC1 Promoter Activators; further: nearly all actives have a fitted effect of over 60% in size;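 on activation: reporter is driven by a mutant NPC1 promoter; % of control where 0% means no effect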
- ASSAY_CONDITIONS: Huh7 NPC1 promoter luciferase reporter, 24 h; series mostly up to 9.22 µM
Among all 320,000 compounds or so, about 7,600 (2.4%) were called active. Another 3% or so got no clear call; they are omitted. The call rests on the fitted dose curve; in most records, active means well fitted activation curve with a large enough effect; inconclusive means small, poorly fitted or top-dose-only effect; inactive means no such curve, though single readings can be large or run the other way. Shown is part of a subset that was picked to be rich in actives.
Please state which outcome applies, choosing from active, inactive

Here's what some known entries look like.
Cc1ccc(-c2cn3cc([N+](=O)[O-])ccc3n2)cc1
active
CCOC(=O)c1sc(N)c(C#N)c1COC(=O)C1=COCCO1
inactive

Now let's try a different one.
Which outcome was entered for the molecule Cc1ccc(C(=O)Cn2cc([N+](=O)[O-])nc2C)cc1 in this test?
inactive

* * *

- ASSAY: qHTS Assay for NPC1 Promoter Activators; further: nearly all actives have a fitted effect of over 60% in size;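 on activation: reporter is driven by a mutant NPC1 promoter; % of control where 0% means no effect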
- ASSAY_CONDITIONS: Huh7 NPC1 promoter luciferase reporter, 24 h; series mostly up to 9.22 µM
- From the text: NIH Chemical Genomics Center [NCGC] NIH Molecular Libraries Probe Production centers Network [MLPCN] […] The NPC1 promoter is cloned in front of the luciferase reporter gene, therefore NPC promoter activation results in luciferase expression. […] 7.#Read using the luminescence protocol on the ViewLux plate reader (Perkin Elmer).
About 7,600 (2.4%) of roughly 320,000 compounds were called active. Another 3% or so got no clear call; they are omitted. The call rests on the fitted dose curve; in most records, active means well fitted activation curve with a large enough effect; inconclusive means small, poorly fitted or top-dose-only effect; inactive means no such curve, though single readings can be large or run the other way. What follows is part of a selection rich in actives, with near analogues and random picks from the rest.
Please state which outcome applies, choosing from yes (1) (active), no (0) (inactive)

Here's what some known entries look like.
CCCc1cc(-c2nc(-c3ccc(C)cc3)cs2)ccn1
no (0)
O=C(COC(=O)c1ccccn1)NNC(=O)c1ccc([N+](=O)[O-])cc1
no (0)
O=C(COc1ccccc1Cl)N1N=C(c2cccs2)CC1c1ccco1 (stereo not given)
no (0)
O=C(Nc1ccccc1Cl)O/N=C(/c1ccccc1)c1ccccn1
no (0)
COc1ccc(/C=N/Nc2nc3ccccc3o2)cc1OC
yes (1)

Which outcome was entered for the compound CCNc1nc(NCC)nc(N/N=C/c2ccc(O)c(OC)c2)n1 in this test?
no (0)

Which outcome was entered for the compound CCOc1ccc(/C=N/Nc2nncc(-c3ccccc3)n2)cc1OC in this test?
no (0)

Which outcome was entered for the compound COc1ccc(S(=O)(=O)Nc2ccc3cn[nH]c3c2)cc1[N+](=O)[O-] in this test?
no (0)

Which outcome was entered for the compound O=C(CNc1ccccc1N1CCCC1=O)Nc1cc(Cl)ccc1-n1cncn1 in this test?
no (0)

Which outcome was entered for the compound Cc1ccc(-c2csc(-c3c[nH]c4ccccc34)n2)cc1 in this test?
yes (1)
